Origin of values: patent US9458153B2

- System: HBsAg
- TEST_NAME: HBsAg assay (chemiluminescence immunoassay of secreted HBsAg in HepG2.2.15 culture supernatant)
- Assay type: cell-based, HBV
- CONDITION_SUMMARY: Hepatitis B virus, HepG2.2.15, HBsAg secretion reduced by 50% vs no drug control; HepG2.2.15 cells; CLIA kit
Exam item: assign YES to entries whose IC50 is below 5 µM and NO to entries at or above 5 µM. Note that a value of exactly 5 µM receives NO.

INSERT INTO measurements (compound, group_label) VALUES
  ('COCCCOc1cc2c(cc1OC)-c1cc(=O)c(C(=O)O)cn1C(C1CCC1)C2 (stereo not drawn)', 'YES'),
  ('CCC1Cc2cc(OCCCC#N)c(OC)cc2-c2cc(=O)c(C(=O)O)cn21 (stereo not drawn)', 'YES'),
  ('COc1ccc2c(c1Cl)CC(C)n1cc(C(=O)O)c(=O)cc1-2 (stereo not drawn)', 'NO'),
  ('CC[C@@H]1Cc2cc(OC)c(OC)cc2-c2cc(=O)c(C(=O)O)cn21', 'YES'),
  ('COc1cc2c(cc1OC)-c1cc(=O)c(C(=O)O)cn1C(Cc1ccccc1)C2 (stereo not drawn)', 'NO');

hey, is IC50 for COc1cc2c(cc1OCCCN1CCCC1)CC(C(C)(C)C)n1cc(C(=O)O)c(=O)cc1-2 (stereo not drawn) lower than 5 µM or not?
YES

State whether 5 µM exceeds IC50 recorded for CCC1Cc2cc(OCCn3ccnc3)c(OC)cc2-c2cc(=O)c(C(=O)O)cn21 (stereo not drawn) .
YES

Please indicate whether the reported IC50 of CCC1Cc2cc(OCC(=O)N3CCCC3)c(OC)cc2-c2cc(=O)c(C(=O)O)cn21 (stereo not drawn) is strictly below 5 µM.
NO

Is 5 µM strictly greater than the compound's reported IC50? compound: COc1cc2c(c(Cl)c1OC)CC(C)n1cc(C(=O)O)c(=O)cc1-2 (stereo not drawn)
NO

* * *

- System: HBsAg
- TEST_NAME: HBsAg assay (chemiluminescence immunoassay of secreted HBsAg in HepG2.2.15 culture supernatant)
- Type: cell-based, HBV
- CONDITION_SUMMARY: Hepatitis B virus, HepG2.2.15, HBsAg secretion reduced by 50% vs no drug control; HepG2.2.15 cells; CLIA kit
- Method: HepG2.2.15 cells (Acs et al. Proc Natl Acad Sci USA, 84, (1987), 4641-4), a constitutively HBV-expressing cell line were cultured in DMEM+Glutamax-I medium (Invitrogen, Carlsbad, Calif., USA), supplemented with 10% fetal bovine serum (Invitrogen) and G418 (Invitrogen) at a final concentration of 200 mg/L and maintained in 5% CO2 at 37° C. HepG2.2.15 cells were seeded in duplicate into white, 96-well plates at 1.5×10^4 cells/well. […]
The entries below are paired with their reported pIC50.
pIC50 here is simply -log10 of the concentration when that concentration is written in mol/L.

Illustrative cases are given below, each with its answer.
INSERT INTO assay_data (compound, system, data_value) VALUES
  ('CCC1Cc2cc(Br)c(OC)cc2-c2cc(=O)c(C(=O)O)cn21 (centres unmarked)', 'HBsAg', 6.64),
  ('CCCCOc1cc2c(cc1OC)-c1cc(=O)c(C(=O)O)cn1C(CC)C2 (centres unmarked)', 'HBsAg', 7.80),
  ('CCOc1cc2c(cc1OC)-c1cc(=O)c(C(=O)O)cn1C(C)C2 (centres unmarked)', 'HBsAg', 7.01),
  ('COc1cc2c(cc1C)-c1cc(=O)c(C(=O)O)cn1C(C)C2 (centres unmarked)', 'HBsAg', 6.85);

Consider the additional compound presented here.
Any idea what its pIC50 is? The compound is CCC1Cc2cc(OCCc3ccccc3)c(OC)cc2-c2cc(=O)c(C(=O)O)cn21 (centres unmarked)
7.85
